Please go through the items and note down their GI50.
# Tested on: A498
# TEST PROTOCOL: NCI tumour cell line growth inhibition, 48 h
Activity calls are given as the source filed them. No stated cut-off is given here; in the data, active = GI50 up to about 1.1 µM and inactive = higher.

Request: GET /values?readout=GI50&item= CC(=O)OC1OC2C(NC(=O)OC(C)(C)C)C1CC2(OCc1ccccc1)OCc1ccccc1 (centres undefined)
Result: 19.4 µM (inactive)

Request: GET /values?readout=GI50&item= COc1ccc(/C=C2\c3cc(OC)c(OC)cc3CCN2C(=O)c2ccccc2)cc1OC
Result: 35.4 µM (inactive)

Request: GET /values?readout=GI50&item= C=CCSC1=N/C(=C\c2cccs2)C(=O)N1CC=C
Result: 26.4 µM (inactive)

Request: GET /values?readout=GI50&item= COCN1C(=O)[C@@H]2CCCN2C(=O)c2cc(N)ccc21
Result: > 100 µM (inactive)

Request: GET /values?readout=GI50&item= COC(=O)C1=C(C)NC(C)=C(C(=O)OC)C1c1ccc(NO)cc1
Result: 29.8 µM (inactive)

Request: GET /values?readout=GI50&item= CC1CC[C@]2(C(=O)O)CCC3(C)C(=CCC4[C@@]5(C)CC[C@H](OS(=O)(=O)c6ccccc6)C(C)(C)C5CC[C@]43C)[C@@H]2[C@H]1C (some centres undefined)
Result: > 100 µM (inactive)

Request: GET /values?readout=GI50&item= COC(c1ccc(C(C)(C)C)cc1)(c1ccc(C(C)(C)C)cc1)c1ccc(C(C)(C)C)cc1
Result: > 100 µM (inactive)

Request: GET /values?readout=GI50&item= COc1cc(CC2CCc3nc(N)nc(N)c3C2)cc(OC)c1OC (centres undefined)
Result: 20.7 µM (inactive)

Request: GET /values?readout=GI50&item= CC1CNC(c2ccc(CN3CCC(C4CCN(Cc5ccc(C6=NC(C)CN6)cc5)CC4)CC3)cc2)=N1 (centres undefined)
Result: 29.2 µM (inactive)

* * *

# System: OVCAR-8
# TEST PROTOCOL: NCI tumour cell line growth inhibition, 48 h
Activity calls are given as the source filed them. No stated cut-off is given here; in the data, active = GI50 up to about 1.1 µM and inactive = higher. Non-standard residues stand in square brackets, D forms with d. Residues, ends and D or L forms follow the SMILES beside them. ξ: configuration not given here. *: point of attachment. ξF = NC(Cc1ccccc1)C(=O)O; Cbz = O=C(OCc1ccccc1)*; Aib = CC(C)(N)C(=O)O
TEST READOUT: GI50

Request: GET /values?readout=GI50&item= COc1ccc(C2=Nn3c(nc4sc5c(c4c3=O)CCCC5)SC2)cc1
Result: > 100 µM (inactive)

Request: GET /values?readout=GI50&item= CS(=O)(=O)N(CCC#N)c1ccc(/C=C2\N=C(c3ccccc3Cl)OC2=O)cc1
Result: > 100 µM (inactive)

Request: GET /values?readout=GI50&item= CCOC(=O)CNC(=O)C(Cc1ccccc1)NC(=O)C(C)(C)NC(=O)OCc1ccccc1 (stereo unspecified) (Cbz-[Aib]-[ξF]-Gly-OEt)
Result: > 100 µM (inactive)

Request: GET /values?readout=GI50&item= Clc1ccc2[nH]c(CC3CCCC3)nc2c1
Result: 25.6 µM (inactive)

Request: GET /values?readout=GI50&item= CC(=O)CC(=O)N1CCOC1=O
Result: > 10 µM (inactive)

Request: GET /values?readout=GI50&item= Cc1ccc(/N=N\c2c(O)ccc3cc(S(=O)(=O)O)ccc23)cc1
Result: > 100 µM (inactive)

Request: GET /values?readout=GI50&item= O=C1C(CN2CCCCC2)CCC1CN1CCCCC1 (stereo unspecified)
Result: 26.8 µM (inactive)

Request: GET /values?readout=GI50&item= CC(C)CCCC(C)[C@H]1CC[C@H]2n3c(nc4ccccc43)CCC[C@]12C (stereo partly specified)
Result: 17.1 µM (inactive)

Request: GET /values?readout=GI50&item= CCc1n[nH]c(=O)n1N1C(=O)C2CC=CCC2C1=O (stereo unspecified)
Result: > 100 µM (inactive)

Request: GET /values?readout=GI50&item= O=C(CCc1nnc(S)[nH]1)NC12CC3CC(CC(C3)C1)C2
Result: > 100 µM (inactive)

Request: GET /values?readout=GI50&item= OC[C@H](O)[C@@H](OCc1ccccc1)[C@H](NCc1ccccc1)c1cccs1
Result: > 100 µM (inactive)

Request: GET /values?readout=GI50&item= COc1nc(C(Cl)(Cl)Cl)c(Cl)c(O)c1Cl
Result: > 100 µM (inactive)

Request: GET /values?readout=GI50&item= CCN(CC)c1ccc(/C=c2\nc(-c3ccccc3)n3c2nc2ccccc23)cc1
Result: 9.79 µM (inactive)

Request: GET /values?readout=GI50&item= CC1CC2C(=O)N(c3ccccc3)C(=O)C2c2c1c1ccccc1n2Cc1ccccc1 (stereo unspecified)
Result: > 100 µM (inactive)

Request: GET /values?readout=GI50&item= O=C1CCCC1CN1CCCC1 (stereo unspecified)
Result: 17.3 µM (inactive)

Request: GET /values?readout=GI50&item= CC(C)C(=O)CC(Sc1ccc(N)cc1)c1ccccc1 (stereo unspecified)
Result: 25.6 µM (inactive)

Request: GET /values?readout=GI50&item= C[C@H](C1CC2(C)OC2(C)C(=O)O1)[C@H]1CC[C@H]2[C@@H]3[C@@H]4O[C@@H]4[C@@]4(O)CC=CC(=O)[C@]4(C)[C@H]3CC[C@]12C (stereo partly specified)
Result: > 50 µM (inactive)

Request: GET /values?readout=GI50&item= CCC(/C(=N/NC(=O)C[N+](C)(C)C)c1ccccc1)C1OC(=O)c2ccccc21 (stereo unspecified)
Result: > 100 µM (inactive)

Request: GET /values?readout=GI50&item= CN(C)CCNc1ccc(NCC[N+](C)(C)Cc2ccc([N+](=O)[O-])cc2)c2c1C(=O)c1ccccc1C2=O
Result: > 25 µM (inactive)

Request: GET /values?readout=GI50&item= O=C1c2ccccc2C(=O)c2c1oc(=O)c1ccccc21
Result: 2 µM (inactive)

Request: GET /values?readout=GI50&item= COc1ccc(C2=Nn3c(nnc(Cc4ccc(Cl)cc4)c3=O)SC2)cc1
Result: 93.1 µM (inactive)

* * *

# System: NCI-H226
# TEST PROTOCOL: NCI tumour cell line growth inhibition, 48 h
Activity calls are given as the source filed them. No stated cut-off is given here; in the data, active = GI50 up to about 1.1 µM and inactive = higher.
Use one of these outcomes when replying: yes = active, no = inactive

Request: Kindly provide the recorded test outcome for the following compound: CCOC(=O)/C(Br)=C1\OC(=O)c2ccccc2-c2ccccc21
Result: no

Request: Kindly provide the recorded test outcome for the following compound: COC(=O)C(=O)C(C#N)c1ccc(CC#N)cc1 (configuration not stated)
Result: no

Request: Kindly provide the recorded test outcome for the following compound: NC(=O)N(O)c1cccc(Br)c1
Result: no

Request: Kindly provide the recorded test outcome for the following compound: C[C@H](C1CC2(C)OC2(C)C(=O)O1)[C@H]1CC[C@H]2[C@@H]3[C@@H]4O[C@@H]4[C@@]4(O)CC=CC(=O)[C@]4(C)[C@H]3CC[C@]12C (some centres not stated)
Result: no

Request: Kindly provide the recorded test outcome for the following compound: CCC(/C(=N/NC(=O)C[N+](C)(C)C)c1ccccc1)C1OC(=O)c2ccccc21 (configuration not stated)
Result: no

Request: Kindly provide the recorded test outcome for the following compound: COc1ccc(CC(C)N)cc1 (configuration not stated) [PARA-METHOXYAMPHETAMINE]
Result: no

Request: Kindly provide the recorded test outcome for the following compound: CN(CC(=O)O)c1ncc2c(n1)-c1ccccc1CC2
Result: no

Request: Kindly provide the recorded test outcome for the following compound: Brc1ccc2[nH]cc(-c3csc(-c4c[nH]c5ccccc45)n3)c2c1
Result: no

Request: Kindly provide the recorded test outcome for the following compound: COC(=O)CCc1ccc2c(c1)CC1(C2)Cc2ccc(CCC(=O)OC)cc2C1
Result: no

Request: Kindly provide the recorded test outcome for the following compound: CC1=C(/C=C/C(C)=C/C=C/C(C)=C/C(=O)OC2CC(n3cc(F)c(=O)[nH]c3=O)OC2CO)C(C)(C)CCC1 (configuration not stated)
Result: no

Request: Kindly provide the recorded test outcome for the following compound: CCOC(=O)/C(C#N)=C1\N[C@H](C(=O)OCC)CO1
Result: no

Request: Kindly provide the recorded test outcome for the following compound: CCOC(=O)C(=O)Nc1c(C)cccc1C
Result: no

Request: Kindly provide the recorded test outcome for the following compound: COC(=O)C(Cc1ccccc1)NC(=O)C(CCC(=O)OCc1ccccc1)NC(=O)OC(C)(C)C (configuration not stated)
Result: no

Request: Kindly provide the recorded test outcome for the following compound: Cn1nc2ccc([N+](=O)[O-])cc2[n+]1[O-]
Result: no

Request: Kindly provide the recorded test outcome for the following compound: CC(C)(CC(O)C#N)/[N+]([O-])=[N+](\[O-])C(C)(C)CC(O)C#N (configuration not stated)
Result: no

Request: Kindly provide the recorded test outcome for the following compound: CC(C)[S+]1C2=C(CC(C)(C)CC2=O)[N-]c2ccccc21 (configuration not stated)
Result: no

Request: Kindly provide the recorded test outcome for the following compound: O=C1CCCC1CN1CCCC1 (configuration not stated)
Result: no

Request: Kindly provide the recorded test outcome for the following compound: Cc1cccc2c(N)c3cccc(C(=O)NCCCNCCN)c3nc12
Result: yes

Request: Kindly provide the recorded test outcome for the following compound: NNS(=O)(=O)c1ccc(/C=C2\NC(=O)NC2=O)cc1
Result: no

Request: Kindly provide the recorded test outcome for the following compound: COc1cc(C(=O)NC(CCN)(c2ccccc2)c2ccccc2)cc(OC)c1OC
Result: no

Request: Kindly provide the recorded test outcome for the following compound: c1ccc2c3nc(C4CCCC4)nc-3c(NC3CCCC3)[nH]c2c1
Result: no

Request: Kindly provide the recorded test outcome for the following compound: O=c1[nH]cc(COCCCO)c(=O)[nH]1
Result: no

Request: Kindly provide the recorded test outcome for the following compound: [N-]=[N+]=CC(=O)C1CCN(c2ccccc2)C1=O (configuration not stated)
Result: no

Request: Kindly provide the recorded test outcome for the following compound: O=C1NC(c2ccccc2Cl)Nc2ccccc21 (configuration not stated)
Result: no

Request: Kindly provide the recorded test outcome for the following compound: CC(C)Nc1[nH]c(C(=O)c2ccccc2)c(N)c1C(=S)Nc1ccccc1
Result: no

Request: Kindly provide the recorded test outcome for the following compound: Cc1nn2c(nc1=O)sc1ccc3ccccc3c12
Result: no

Request: Kindly provide the recorded test outcome for the following compound: CSc1ccc(C(=C=C=C(c2ccc(SC)s2)c2ccc(SC)s2)c2ccc(SC)s2)s1
Result: no

Request: Kindly provide the recorded test outcome for the following compound: CCOC(=O)/C(C)=C\[C@@]1(C)O[C@@H](C)[C@@](C)(OC(C)=O)[C@@H]1OC(C)=O
Result: no

Request: Kindly provide the recorded test outcome for the following compound: O=c1nc(NC(c2ccccc2)(c2ccccc2)c2ccccc2)ccn1CCNCCn1ccc(NC(c2ccccc2)(c2ccccc2)c2ccccc2)nc1=O
Result: no

Request: Kindly provide the recorded test outcome for the following compound: Clc1ccc2[nH]c(CC3CCCC3)nc2c1
Result: no

Request: Kindly provide the recorded test outcome for the following compound: CC1(C)OC(=O)C(=C2CCC(C(=O)Nc3cccc(C(F)(F)F)c3)N2)C(=O)O1 (configuration not stated)
Result: no

Request: Kindly provide the recorded test outcome for the following compound: O=c1oc2ccccc2cc1-c1nc2ccc([N+](=O)[O-])cc2o1
Result: no

Request: Kindly provide the recorded test outcome for the following compound: O=C(CCc1nnc(S)[nH]1)Nc1ccccc1Cl
Result: no

Request: Kindly provide the recorded test outcome for the following compound: COc1ccccc1/C=C1\CCC(CN2CCOCC2)C1=O (configuration not stated)
Result: no

Request: Kindly provide the recorded test outcome for the following compound: OC[C@H](O)[C@@H](OCc1ccccc1)[C@H](NCc1ccccc1)c1cccs1
Result: no

Request: Kindly provide the recorded test outcome for the following compound: NC1=NN(c2ccccc2)C(=O)C1/C(=N\NC(=O)c1cc2ccccc2cc1O)C(=O)Nc1ccc(Cl)cc1 (configuration not stated)
Result: no

Request: Kindly provide the recorded test outcome for the following compound: FC(F)(F)c1nc(-c2ccccc2Cl)[nH]c1C(F)(F)F
Result: yes

Request: Kindly provide the recorded test outcome for the following compound: N=C(N)N/N=C/c1c(Cl)nc2n1CCS2
Result: no

Request: Kindly provide the recorded test outcome for the following compound: CCC(=O)Nc1nc2c(ncn2C2OC(COC(=O)CC)C(OC(=O)CC)C2OC(=O)CC)c(=O)[nH]1 (configuration not stated)
Result: no

Request: Kindly provide the recorded test outcome for the following compound: CC(C)OC(=O)C(NC(=O)C(CC(=O)OCc1ccccc1)NC(=O)OCc1ccccc1)NC(=O)C1C(C)(C)CCC1(C)C (configuration not stated)
Result: no

Request: Kindly provide the recorded test outcome for the following compound: CCC(=O)Nc1cccc(/N=C/c2ccc(OC(=O)/C=C\c3ccccc3)cc2)c1
Result: no

Request: Kindly provide the recorded test outcome for the following compound: Clc1ccccc1-c1nc(-c2ccncc2)no1 [PIFEXOLE]
Result: no
